Consider the following compounds and their measured IC50 readings.
System: HepG2
experimental.details: Anticancer activity against human HepG2 cells by MTT assay
Assay type: functional, cell-based

Give me measured IC50, please, for this compound: CCOC(=O)c1cn(Cc2cn(-c3ccc(F)cc3)nn2)c2ccc(Cl)cc2c1=O
13.6 to 66 µM

Give me measured IC50, please, for this compound: CCOC(=O)c1cn(Cc2cn(-c3ccc(C)cc3)nn2)c2ccc(Cl)cc2c1=O
13.1 to 88.4 µM

Give me measured IC50, please, for this compound: CCOC(=O)c1cn(Cc2cn(-c3ccc(C)cc3)nn2)c2ccc(F)cc2c1=O
13.1 to 88.4 µM

Give me measured IC50, please, for this compound: CCOC(=O)c1cn(Cc2cn(-c3ccc(Cl)cc3)nn2)c2ccc(F)cc2c1=O
13.1 to 70.2 µM

Give me measured IC50, please, for this compound: CCOC(=O)c1cn(Cc2cn(-c3ccc(Cl)cc3)nn2)c2ccc(C)cc2c1=O
13.1 to 88.4 µM

Give me measured IC50, please, for this compound: CCOC(=O)c1cn(Cc2cn(-c3ccc([N+](=O)[O-])cc3)nn2)c2ccc(Cl)cc2c1=O
13.1 to 88.4 µM

Give me measured IC50, please, for this compound: CCOC(=O)c1cn(Cc2cn(-c3ccc(Cl)cc3)nn2)c2ccc(Cl)cc2c1=O
13.1 to 88.4 µM

* * *

Tested on: MCF7
experimental.details: Cytotoxicity against human MCF7 cells assessed as reduction in cell viability after 48 hrs by MTT assay
Assay type: functional, cell-based
reported.conditions: MCF7, 48 h
Consider the following compounds and their measured IC50 readings.

* COc1cc(Cn2cc(Cn3c4ccccc4c(=O)c4cc(Cl)ccc43)nn2)cc(OC)c1OC | > 100 µM

Give me measured IC50, please, for this compound: COc1ccc2c(c1)c(=O)c1ccccc1n2Cc1cn(Cc2cc(OC)c(OC)c(OC)c2)nn1
> 100 µM

Give me measured IC50, please, for this compound: CCc1ccc2c(c1)c(=O)c1ccccc1n2Cc1cn(Cc2cc(OC)c(OC)c(OC)c2)nn1
> 100 µM

Give me measured IC50, please, for this compound: COc1cc(Cn2cc(Cn3c4ccccc4c(=O)c4ccccc43)nn2)cc(OC)c1OC
> 100 µM

Give me measured IC50, please, for this compound: COc1ccc(Cn2cc(Cn3c4ccccc4c(=O)c4cc(OC)ccc43)nn2)cc1
11 to 16.6 µM

Give me measured IC50, please, for this compound: COc1cc(Cn2cc(Cn3c4ccccc4c(=O)c4cccc(F)c43)nn2)cc(OC)c1OC
> 100 µM

Give me measured IC50, please, for this compound: COc1cc([C@@H]2c3cc4c(cc3[C@@H](O[C@@H]3O[C@@H]5CO[C@@H](C)O[C@H]5[C@H](O)[C@H]3O)[C@H]3COC(=O)[C@H]23)OCO4)cc(OC)c1O [ETOPOSIDE]
11.8 to 15.7 µM

Give me measured IC50, please, for this compound: COc1cc(Cn2cc(Cn3c4ccccc4c(=O)c4cccc(OC)c43)nn2)cc(OC)c1OC
> 100 µM

Give me measured IC50, please, for this compound: COc1cc(Cn2cc(Cn3c4ccccc4c(=O)c4cc(Br)ccc43)nn2)cc(OC)c1OC
> 100 µM

* * *

Consider the following compounds and their measured LD50 readings.
experimental.details: Toxicity in mouse xenografted with human CX-1 cells
reported.conditions: in vivo
A complete answer gives the number and then names the unit.

Answered examples (3):
* CCC[C@H](N)C(=O)NC1CCN(C2C(F)=Cc3c4n(cc(C(=O)O)c3=O)-c3ccccc3OC42)C1 (some centres undefined) | 59.6 mg/kg
* COc1cccc2c1C(=O)c1c(O)c3c(c(O)c1C2=O)C[C@@](O)(C(=O)CO)C[C@@H]3O[C@H]1C[C@H](N)[C@H](O)[C@H](C)O1 [DOXORUBICIN] | 11 mg/kg
* COc1cc([C@@H]2c3cc4c(cc3[C@@H](O[C@@H]3O[C@@H]5CO[C@@H](C)O[C@H]5[C@H](O)[C@H]3O)[C@H]3COC(=O)[C@H]23)OCO4)cc(OC)c1O [ETOPOSIDE] | 64 mg/kg

Please examine the following record next.
Give me measured LD50, please, for this compound: CN(Cc1cnc2nc(N)nc(N)c2n1)c1ccc(C(=O)N[C@@H](CCC(=O)O)C(=O)O)cc1 [METHOTREXATE]
5 mg/kg

* * *

Test system: HCT-116
experimental.details: Cytotoxicity against human HCT116 cells assessed as reduction in cell viability by SRB assay
Type: functional, cell-based
Consider the following compounds and their measured IC50 readings.

Answered examples (5):
- N#Cc1c(N)c2cc(-c3nc4ccccc4s3)ccc2[nH]c1=O: 61.6 nM
- COc1ccc2c(c1)c(=O)c(C(=O)Nc1nc3ccccc3s1)cn2CCCCCC(=O)NO: 600 to 16000 nM
- COc1cccc2c1C(=O)c1c(O)c3c(c(O)c1C2=O)C[C@@](O)(C(=O)CO)C[C@@H]3O[C@H]1C[C@H](N)[C@H](O)[C@H](C)O1: 8.8 nM
- O=C(CCCCCn1cc(C(=O)Nc2nccs2)c(=O)c2ccccc21)NO: 5000 to 16000 nM
- O=c1[nH]c2ccccc2c2nn(-c3ccccc3)c(-c3cn(-c4ccccc4)nc3-c3ccccc3)c12: 160 to 300 nM

Give me measured IC50, please, for this compound: O=c1[nH]c2ccccc2c2n[nH]c(-c3cn(-c4ccccc4)nc3-c3ccccc3)c12
160 to 300 nM

Give me measured IC50, please, for this compound: O=C(CCCCCn1cc(C(=O)Nc2nc3ccccc3s2)c(=O)c2cc(F)ccc21)NO
600 to 16000 nM

Give me measured IC50, please, for this compound: O=C(CCCCCn1cc(C(=O)Nc2nc3ccccc3s2)c(=O)c2ccccc21)NO
600 to 1000 nM

Give me measured IC50, please, for this compound: Cn1nc(-c2ccccc2)cc1NC(=O)c1cn(CCCCCC(=O)NO)c2ccccc2c1=O
600 to 16000 nM

Give me measured IC50, please, for this compound: O=c1[nH]cc(F)c(=O)[nH]1
540 nM

Give me measured IC50, please, for this compound: N#Cc1c(N)c2cc(-c3nc4ccccc4o3)ccc2[nH]c1=O
35.7 nM

Give me measured IC50, please, for this compound: Cc1csc(NC(=O)c2cn(CCCCCC(=O)NO)c3ccccc3c2=O)n1
2430 to 2900 nM

* * *

System: PC-3
experimental.details: Antiproliferative activity against human PC3 cells by CCK8 assay
Type: functional, cell-based
Consider the following compounds and their measured IC50 readings.

Answered examples (3):
• C[C@H]1COc2c(N3CCN(C)CC3)c(F)cc3c(=O)c(C(=O)OCc4cn(CCCCCC(=O)O)nn4)cn1c23 = 7.8 to 16.5 µM
• C[C@H]1COc2c(N3CCN(C)CC3)c(F)cc3c(=O)c(C(=O)NCc4cn(CCCCCC(=O)NO)nn4)cn1c23 = 0.3 to 12.8 µM
• C[C@H]1COc2c(N3CCN(C)CC3)c(F)cc3c(=O)c(C(=O)NCc4cn(CCCCCCC(=O)NO)nn4)cn1c23 = 0.3 to 4.9 µM

Please examine the following record next.
Give me measured IC50, please, for this compound: C[C@H]1COc2c(N3CCN(C)CC3)c(F)cc3c(=O)c(C(=O)NCc4cn(CCCCCCCC(=O)O)nn4)cn1c23
7.8 to 16.5 µM

* * *

System: HeLa
experimental.details: Anticancer activity against human HeLa cells by MTT assay
Type: functional, cell-based
pIC50: −log10 of the molar value.
measured.attribute: pIC50

* CCOC(=O)c1cn(Cc2cn(-c3ccc(Cl)cc3)nn2)c2ccc(F)cc2c1=O | 4.15 to 4.88

Please examine the following record next.
Give me measured pIC50, please, for this compound: CCOC(=O)c1cn(Cc2cn(-c3ccc(F)cc3)nn2)c2ccc(Cl)cc2c1=O
4.18 to 4.87

* * *

System: Hep 3B2
experimental.details: Cytotoxicity against human Hep3B cells assessed as reduction in cell viability by MTT assay
Assay type: functional, cell-based
Consider the following molecules and their measured IC50 readings.

Answered examples (3):
* CN1CCN(c2cc3c(cc2F)c(=O)c(-c2nc4scc(-c5ccc(Br)cc5)n4n2)cn3C2CC2)CC1 | 3.6 to 56.8 µM
* COc1ccc(-c2csc3nc(-c4cn5c6c(c(N7CCN(C)CC7)c(F)cc6c4=O)OCC5C)nn23)cc1 (stereo unspecified) | 26.7 to 35.7 µM
* CCn1cc(-c2nc3scc(-c4ccccc4OC)n3n2)c(=O)c2cc(F)c(N3CCN(C)CC3)cc21 | 3.6 to 56.8 µM

Give me measured IC50, please, for this molecule: COc1ccc(-c2csc3nc(-c4cn(C5CC5)c5cc(N6CCN(C)CC6)c(F)cc5c4=O)nn23)cc1
3.6 to 56.8 µM

Give me measured IC50, please, for this molecule: CCn1cc(-c2nnc(SCc3nnc(-c4ccc(C)cc4)o3)[nH]2)c(=O)c2cc(F)c(N3CCN(C)CC3)cc21
3.8 to 35.2 µM

Give me measured IC50, please, for this molecule: CCn1cc(-c2nc3scc(-c4ccc(OC)cc4)n3n2)c(=O)c2cc(F)c(N3CCN(C)CC3)cc21
3.6 to 56.8 µM

Give me measured IC50, please, for this molecule: CCn1cc(-c2nnc(SCc3nnc(-c4ccc([N+](=O)[O-])cc4)o3)[nH]2)c(=O)c2cc(F)c(N3CCN(C)CC3)cc21
3.8 to 35.2 µM

Give me measured IC50, please, for this molecule: CCn1cc(-c2nnc(SCc3nnc(-c4ccc(OC)cc4)o3)[nH]2)c(=O)c2cc(F)c(N3CCN(C)CC3)cc21
3.8 to 35.2 µM

Give me measured IC50, please, for this molecule: CCn1cc(-c2nnc(SCc3nnc(-c4ccccc4)o3)[nH]2)c(=O)c2cc(F)c(N3CCN(C)CC3)cc21
3.8 to 35.2 µM

Give me measured IC50, please, for this molecule: CCn1cc(-c2nnc(SCc3nnc(-c4ccccc4OC)o3)[nH]2)c(=O)c2cc(F)c(N3CCN(C)CC3)cc21
3.8 to 35.2 µM

Give me measured IC50, please, for this molecule: CN1CCN(c2cc3c(cc2F)c(=O)c(-c2nc4scc(-c5ccc([N+](=O)[O-])cc5)n4n2)cn3C2CC2)CC1
3.6 to 7.6 µM

Give me measured IC50, please, for this molecule: CCn1cc(-c2nc3scc(-c4ccc(C)cc4)n3n2)c(=O)c2cc(F)c(N3CCN(C)CC3)cc21
3.6 to 56.8 µM

Give me measured IC50, please, for this molecule: CCn1cc(-c2nc3scc(-c4ccc([N+](=O)[O-])cc4)n3n2)c(=O)c2cc(F)c(N3CCN(C)CC3)cc21
3.6 to 56.8 µM

Give me measured IC50, please, for this molecule: CC1COc2c(N3CCN(C)CC3)c(F)cc3c(=O)c(-c4nc5scc(-c6ccc(F)cc6)n5n4)cn1c23 (stereo unspecified)
3.6 to 56.8 µM

Give me measured IC50, please, for this molecule: CN1CCN(c2cc3c(cc2F)c(=O)c(-c2nc4scc(-c5ccccc5)n4n2)cn3C2CC2)CC1
3.6 to 56.8 µM

Give me measured IC50, please, for this molecule: CCn1cc(-c2nc(SCc3nnc(-c4ccc(OC)c(OC)c4)o3)n(CN(C)C)n2)c(=O)c2cc(F)c(N3CCN(C)CC3)cc21
1.5 to 24.5 µM
